# MEASUREMENT_TARGET: T1, human IL-11 (human, UniProt P20809 22-199)
# T1 construct: Invigate, e.g. lot #C121021-19; biotinylated where coated in the ELISA; also called hIL-11; hIL11
# T1 sequence: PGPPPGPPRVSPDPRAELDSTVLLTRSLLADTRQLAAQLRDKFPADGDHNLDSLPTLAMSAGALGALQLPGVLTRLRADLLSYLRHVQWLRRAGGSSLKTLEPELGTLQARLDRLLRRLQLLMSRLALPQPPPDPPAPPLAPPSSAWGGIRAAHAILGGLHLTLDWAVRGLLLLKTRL
# EXPERIMENT_DESCRIPTION: SPR, antibody captured, IL-11 as analyte
In this section we review reported Kd values for a set of binders.

[
  {
    "BINDER": "TPP-29401 (antibody, human IgG1, V domains shown) VH: EVQLLESGGGLVQPGGSLRLSCAASGFTFSSYGGHWVRQAPGKGLEWVAVISYDGSYKYYADSVKGRFTISRDNSKNTLYLQMNSLRAEDTAVYYCAAGVPDYWGQGTLVTVSS VL: QSVLTQPPSASGTPGQRVTISCSGSSSNIGSYYDVHWYQQLPGTAPKLLIYSNEERPSGVPDRFSGSKSGTSASLAISGLRSEDEADYYCAAWDDSLSGPVFGGGTKLTVL",
    "VALUE": "0.69 nM"
  }
]

Looking for the measured Kd of TPP-29384 (antibody, human IgG1, V domains shown) VH: EVQLLESGGGLVQPGGSLRLSCAASGFTFSSYGMHWVRQAPGKGLEWVAVISYDGSYKYYADSVKGRFTISRDNSKNTLYLQMNSLRAEDTAVYYCAAGVPDYWGQGTLVTVSS VL: QSVLTQPPSASGTPGQRVTISCSGSSSNIGSGYDVHWYQQLPGTAPKLLIYSNEERPSGVPDRFSGSKSGTSASLAISGLRSEDEADYYCAAWDPSLSGPVFGGGTKLTVL , can you help?
0.98 nM

Now consider TPP-29394 (antibody, human IgG1, V domains shown) VH: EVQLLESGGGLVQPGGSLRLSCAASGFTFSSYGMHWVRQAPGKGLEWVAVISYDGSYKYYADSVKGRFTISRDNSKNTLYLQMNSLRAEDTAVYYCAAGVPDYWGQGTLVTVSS VL: QSVLTQPPSASGTPGQRVTISCSGSSSNIGSDYDVHWYQQLPGTAPKLLIYSNNERPSGVPDRFSGSKSGTSASLAISGLRSEDEADYYCAAWDFSLYGPVFGGGTKLTVL and answer again.
1.2 nM
